Tested on: Fibrinogen (Alexa647-labelled)
Assay: Alexa647-fibrinogen binding to printed small molecules – biochemical, small-molecule microarray, 635/667 nm fluorescence, artefact control for SMM control-protein annotation, profiling panel (AID 1131);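 also: z-score merges 667 nm fluorescence with per-spot signal-to-noise over triplicate slides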
Details: fibrinogen-A647 binding fluorescence, higher = more signal
resultType: composite z-score

1. O=C1O[C@@H](c2ccccc2)[C@@H](c2ccccc2)N2[C@@H](c3ccc(O)cc3)[C@]3(C(=O)Nc4ccc(C#CCCO)cc43)[C@@H](C(=O)O)[C@H]12    0.925
2. O=C1OCC=C[C@H]2OC34C=CCN(c5ccc(Cl)cc5)C(=O)[C@H]3N(CCCO)C(=O)[C@@H]4[C@@H]12 (some centres not stated)    -1.02
3. NC(=O)NCC#Cc1ccc2c(c1)[C@]1(C(=O)N2)[C@H](c2ccccc2OCCO)N2[C@H](c3ccccc3)[C@H](c3ccccc3)OC(=O)[C@H]2[C@@H]1C(=O)N1CCCCCCC1    0.505
4. COCCn1c(C(=O)N(C)C)cc2c1C[C@H]1CN(C(=O)c3ccccc3)[C@@](Cc3ccc(F)cc3)(C(=O)OC)[C@@H]21    0.485
5. O=C1c2ccccc2[C@](Cc2ccccc2I)(C(=O)O)[C@H](c2ccc(CO)cc2)N1Cc1ccccc1C(F)(F)F    0.9
6. O=C(NCC(F)(F)F)[C@@H]1c2ccccc2C(=O)N(Cc2ccccc2)[C@H]1c1ccc(CO)cc1    -1.17
7. C=C(CCCC)/C(=C/C[C@H](OC(C)=O)c1ccc(CO)o1)c1cc(C(=O)OC)ccc1OC    0.579
